- Test system: MDCK
- measurement.protocol: Apparent permeability from apical to basolateral side of MDCK cells
- Assay type: ADME, cell-based, Canis lupus familiaris
- measurement.parameters: dog
Could you please report measured Papp for the items listed next?
Numbers only, in ×10⁻⁶ cm/s.

Here is how some compounds turned out for Papp.
CN=[S+](C)([O-])c1ccc(Nc2ncc(C(F)(F)F)c(N[C@@H]3CCC[C@H]3N(C)C)n2)cc1 (stereo in doubt; (R)-14a)
5.7
CN=[S+](C)([O-])c1ccc(Nc2ncc(C(F)(F)F)c(N[C@@H]3CCC[C@H]3N(C)C)n2)cc1 (stereo in doubt; (S)-14a)
5.1
CCN=[S+](C)([O-])c1ccc(Nc2ncc(C(F)(F)F)c(N[C@@H]3CCC[C@H]3N(C)C)n2)cc1 (stereo in doubt; (R)-14b)
9.3

In: Item CCN=[S+](C)([O-])c1ccc(Nc2ncc(C(F)(F)F)c(N[C@@H]3CCC[C@H]3N(C)C)n2)cc1 (stereo in doubt; (S)-14b) has what recorded Papp?
Out: 8.3

====

- Test system: Rattus norvegicus
- measurement.protocol: Average free plasma concentration in Sprague-Dawley rat at 10 mg/kg, po
- Format: ADME, organism-based
- Parameters: dose 10 mg/kg, route oral
- measurement.parameters: in vivo
endpoint: Cp(f)
Field note: include the unit after the figure.

In: Item CN=[S+](C)([O-])c1ccc(Nc2ncc(C(F)(F)F)c(N[C@@H]3CCC[C@H]3N(C)C)n2)cc1 (stereo in doubt; (S)-14a) has what recorded Cp(f)?
Out: 76 nM

====

Could you please report measured fraction unbound at 1 ug/mL for the items listed next?
- measurement.protocol: Fraction unbound in rat plasma at 1 ug/mL
- Format: ADME, cell-free
One number for each entry.

CN=[S+](C)([O-])c1ccc(Nc2ncc(C(F)(F)F)c(N[C@@H]3CCC[C@H]3N(C)C)n2)cc1 (stereo in doubt; (S)-14a)
0.36

In: Item CN(C)[C@@H]1CCC[C@H]1Nc1nc(Nc2ccc(S(C)(=O)=O)cc2)ncc1C(F)(F)F has what recorded fraction unbound at 1 ug/mL?
Out: 0.3

====

- measurement.protocol: Cmax in Sprague-Dawley rat at 10 mg/kg, po
- Type: ADME, organism-based
- Set-up: dose 10 mg/kg, route oral
- measurement.parameters: in vivo
endpoint: Cmax (nM)
One number for each entry, in nM.

In: Item CN=[S+](C)([O-])c1ccc(Nc2ncc(C(F)(F)F)c(N[C@@H]3CCC[C@H]3N(C)C)n2)cc1 (stereo in doubt; (S)-14a) has what recorded Cmax?
Out: 720

====

Could you please report measured Papp A→B for the items listed next?
- measurement.protocol: Apparent permeability from apical to basolateral side of MDCK cells
- Assay type: ADME, cell-based, Canis lupus familiaris
- measurement.parameters: dog
Numbers only, in ×10⁻⁶ cm/s.

Here is how some compounds turned out for Papp A→B.
CNS(=O)(=O)c1ccc(Nc2ncc(C(F)(F)F)c(N[C@@H]3CCC[C@H]3N(C)C)n2)cc1
5.3
CN(c1ccccc1CNc1nc(Nc2ccc3c(c2)CC(=O)N3)ncc1C(F)(F)F)S(C)(=O)=O
9.2
CC(C)N=[S+](C)([O-])c1ccc(Nc2ncc(C(F)(F)F)c(N[C@@H]3CCC[C@H]3N(C)C)n2)cc1 (mixture of isomers)
6.6

In: Item CN(C)[C@@H]1CCC[C@H]1Nc1nc(Nc2ccc(S(C)(=O)=O)cc2)ncc1C(F)(F)F has what recorded Papp A→B?
Out: 9.5

====

- measurement.protocol: Hepatic extraction ratio in human liver microsomes
- Format: ADME, Microsome
- measurement.parameters: read-out: ERH
endpoint: hepatic extraction ratio
Give bare numbers.

CC[S+]([O-])(=NC)c1ccc(Nc2ncc(C(F)(F)F)c(N[C@@H]3CCC[C@H]3N(C)C)n2)cc1 (stereo partly drawn)
0.58

Continue with the compound presented below.
In: Item CC(C)N=[S+](C)([O-])c1ccc(Nc2ncc(C(F)(F)F)c(N[C@@H]3CCC[C@H]3N(C)C)n2)cc1 (mixture of isomers) has what recorded hepatic extraction ratio?
Out: 0.78

====

- tested.target: hERG (KCNH2) (Homo sapiens, UniProt Q12809)
- Sequence (Q12809 whole entry): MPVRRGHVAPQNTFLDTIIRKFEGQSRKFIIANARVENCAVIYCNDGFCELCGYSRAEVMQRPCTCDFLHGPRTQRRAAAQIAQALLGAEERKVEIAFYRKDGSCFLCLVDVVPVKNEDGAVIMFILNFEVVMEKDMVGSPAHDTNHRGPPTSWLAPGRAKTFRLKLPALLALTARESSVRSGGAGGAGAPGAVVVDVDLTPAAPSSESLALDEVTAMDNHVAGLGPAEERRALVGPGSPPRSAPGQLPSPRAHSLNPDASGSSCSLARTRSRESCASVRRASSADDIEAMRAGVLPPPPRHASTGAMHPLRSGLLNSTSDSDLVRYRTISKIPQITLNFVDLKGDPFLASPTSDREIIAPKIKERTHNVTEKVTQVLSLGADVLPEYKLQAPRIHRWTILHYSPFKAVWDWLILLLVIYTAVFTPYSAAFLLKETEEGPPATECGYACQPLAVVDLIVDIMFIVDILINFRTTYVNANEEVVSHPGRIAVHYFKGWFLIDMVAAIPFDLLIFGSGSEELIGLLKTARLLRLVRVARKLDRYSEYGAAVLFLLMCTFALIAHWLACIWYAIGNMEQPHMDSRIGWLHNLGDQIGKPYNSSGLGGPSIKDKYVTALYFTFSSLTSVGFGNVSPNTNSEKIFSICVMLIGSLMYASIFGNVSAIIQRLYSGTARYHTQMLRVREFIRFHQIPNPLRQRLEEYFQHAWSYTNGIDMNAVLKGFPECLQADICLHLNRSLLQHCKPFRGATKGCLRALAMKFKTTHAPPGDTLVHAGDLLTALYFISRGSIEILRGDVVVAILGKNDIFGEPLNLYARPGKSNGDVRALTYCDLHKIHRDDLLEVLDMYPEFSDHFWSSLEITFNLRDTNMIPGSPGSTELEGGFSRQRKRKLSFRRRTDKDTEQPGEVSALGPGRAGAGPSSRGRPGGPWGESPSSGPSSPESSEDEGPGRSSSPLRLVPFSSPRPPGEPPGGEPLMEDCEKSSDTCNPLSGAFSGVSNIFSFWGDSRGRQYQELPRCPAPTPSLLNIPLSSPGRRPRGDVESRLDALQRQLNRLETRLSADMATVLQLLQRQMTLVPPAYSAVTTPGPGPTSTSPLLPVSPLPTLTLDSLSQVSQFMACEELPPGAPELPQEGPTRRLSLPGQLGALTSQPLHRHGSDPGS
- measurement.protocol: Inhibition of [3H]dofetilide binding to human ERG expressed in HEK293 cells at 10 uM
- Format: cell-based
- measurement.parameters: HEK293 cells that express human ERG, probe [3H]dofetilide
Could you please report measured inhibition at 10 µM for the items listed next?
Give bare numbers, in %.

Here is how some compounds turned out for inhibition at 10 µM.
CN(C)[C@@H]1CCC[C@H]1Nc1nc(Nc2ccc(S(=O)(=O)NC3CC3)cc2)ncc1C(F)(F)F
76
CCN=[S+](C)([O-])c1ccc(Nc2ncc(C(F)(F)F)c(N[C@@H]3CCC[C@H]3N(C)C)n2)cc1 (mixture of isomers)
5.9
CC(C)N=[S+](C)([O-])c1ccc(Nc2ncc(C(F)(F)F)c(N[C@@H]3CCC[C@H]3N(C)C)n2)cc1 (mixture of isomers)
8.4
CC[S+]([O-])(=NC)c1ccc(Nc2ncc(C(F)(F)F)c(N[C@@H]3CCC[C@H]3N(C)C)n2)cc1 (some centres not stated)
2
CNS(=O)(=O)c1ccc(Nc2ncc(C(F)(F)F)c(N[C@@H]3CCC[C@H]3N(C)C)n2)cc1
50

Please look at the items below and tell me inhibition at 10 µM for each one, in order.
1. CN(C)[C@@H]1CCC[C@H]1Nc1nc(Nc2ccc([S+](C)(=N)[O-])cc2)ncc1C(F)(F)F (mixture of isomers)
2. CN(c1ccccc1CNc1nc(Nc2ccc3c(c2)CC(=O)N3)ncc1C(F)(F)F)S(C)(=O)=O

Out:
[12, 41]

====

- measurement.protocol: AUC (infinity) in Sprague-Dawley rat at 10 mg/kg, po
- Assay type: ADME, organism-based
- Set-up: time infinity, dose 10 mg/kg, route oral
- measurement.parameters: plasma
endpoint: AUC(0-inf) (µM·h)
Answers are plain numbers, in µM·h.

In: Item CN=[S+](C)([O-])c1ccc(Nc2ncc(C(F)(F)F)c(N[C@@H]3CCC[C@H]3N(C)C)n2)cc1 (stereo in doubt; (S)-14a) has what recorded AUC(0-inf)?
Out: 5

====

- measurement.protocol: Apparent permeability from apical to basolateral side of MDCK cells
- Type: ADME, cell-based, Canis lupus familiaris
- measurement.parameters: dog
Could you please report measured Papp A→B for the items listed next?
Answers are plain numbers, in ×10⁻⁶ cm/s.

CN(C)[C@@H]1CCC[C@H]1Nc1nc(Nc2ccc(S(=O)(=O)NC3CC3)cc2)ncc1C(F)(F)F
4.8
CN(C)[C@@H]1CCC[C@H]1Nc1nc(Nc2ccc([S+](C)(=N)[O-])cc2)ncc1C(F)(F)F (mixture of isomers)
1
CN=[S+](C)([O-])c1ccc(Nc2ncc(C(F)(F)F)c(N[C@@H]3CCC[C@H]3N(C)C)n2)cc1 (mixture of isomers)
4.4
CC[S+]([O-])(=NC)c1ccc(Nc2ncc(C(F)(F)F)c(N[C@@H]3CCC[C@H]3N(C)C)n2)cc1 (stereo not given in full)
7.8

Continue with the compound presented below.
In: Item CCN=[S+](C)([O-])c1ccc(Nc2ncc(C(F)(F)F)c(N[C@@H]3CCC[C@H]3N(C)C)n2)cc1 (mixture of isomers) has what recorded Papp A→B?
Out: 4.7

====

- measurement.protocol: Oral bioavailability in Sprague-Dawley rat at 10 mg/kg, po
- Format: ADME, organism-based
- measurement.parameters: in vivo
endpoint: bioavailability (%)
Answers are plain numbers, in %.

In: Item CN=[S+](C)([O-])c1ccc(Nc2ncc(C(F)(F)F)c(N[C@@H]3CCC[C@H]3N(C)C)n2)cc1 (stereo in doubt; (S)-14a) has what recorded bioavailability?
Out: 100

====

- tested.target: Protein-tyrosine kinase 2-beta (Homo sapiens)
- Sequence (Q14289 whole entry): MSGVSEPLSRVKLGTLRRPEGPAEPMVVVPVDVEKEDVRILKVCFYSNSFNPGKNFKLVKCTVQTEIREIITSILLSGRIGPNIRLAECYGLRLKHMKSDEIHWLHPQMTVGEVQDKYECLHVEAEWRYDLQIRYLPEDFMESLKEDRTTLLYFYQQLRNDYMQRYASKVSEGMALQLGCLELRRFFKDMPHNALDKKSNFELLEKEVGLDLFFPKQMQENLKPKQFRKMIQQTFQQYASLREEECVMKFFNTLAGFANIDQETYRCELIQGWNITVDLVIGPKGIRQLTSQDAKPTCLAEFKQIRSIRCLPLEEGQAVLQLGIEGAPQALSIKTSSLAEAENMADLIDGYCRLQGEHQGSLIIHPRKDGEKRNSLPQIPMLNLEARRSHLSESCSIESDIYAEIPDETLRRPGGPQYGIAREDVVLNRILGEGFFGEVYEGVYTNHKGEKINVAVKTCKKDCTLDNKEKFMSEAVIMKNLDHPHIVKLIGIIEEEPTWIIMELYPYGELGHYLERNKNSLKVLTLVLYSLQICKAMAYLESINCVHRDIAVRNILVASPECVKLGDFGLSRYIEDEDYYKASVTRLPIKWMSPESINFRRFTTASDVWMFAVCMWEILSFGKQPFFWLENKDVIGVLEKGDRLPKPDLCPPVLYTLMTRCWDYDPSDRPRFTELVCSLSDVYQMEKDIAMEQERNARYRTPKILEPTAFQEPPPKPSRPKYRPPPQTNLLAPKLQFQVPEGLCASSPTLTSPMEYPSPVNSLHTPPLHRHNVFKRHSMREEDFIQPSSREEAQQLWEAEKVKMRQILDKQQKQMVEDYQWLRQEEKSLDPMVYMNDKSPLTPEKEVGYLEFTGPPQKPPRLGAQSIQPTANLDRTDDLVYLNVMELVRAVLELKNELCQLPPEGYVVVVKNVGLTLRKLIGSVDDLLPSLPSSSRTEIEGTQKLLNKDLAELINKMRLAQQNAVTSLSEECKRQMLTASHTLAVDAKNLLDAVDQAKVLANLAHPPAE
- measurement.protocol: Inhibition of PYK2 assessed as reduction in peptide substrate phosphorylation by fluorimetric method
endpoint: IC50 (nM)
One number for each entry, in nM.

Here is how some molecules turned out for IC50.
CC[S+]([O-])(=NC)c1ccc(Nc2ncc(C(F)(F)F)c(N[C@@H]3CCC[C@H]3N(C)C)n2)cc1 (stereo partly drawn)
21
CC(C)N=[S+](C)([O-])c1ccc(Nc2ncc(C(F)(F)F)c(N[C@@H]3CCC[C@H]3N(C)C)n2)cc1 (mixture of isomers)
22

Continue with the molecule presented below.
In: Item CN(C)[C@@H]1CCC[C@H]1Nc1nc(Nc2ccc([S+](C)(=N)[O-])cc2)ncc1C(F)(F)F (mixture of isomers) has what recorded IC50?
Out: 65

====

- measurement.protocol: Clearance in Sprague-Dawley rat at 1 mg/kg, iv
- Format: ADME, organism-based
- Design: dose 1 mg/kg, route intravenous
- measurement.parameters: in vivo
Could you please report measured clearance for the items listed next?
Numbers only, in mL/min/kg.

Please look at the items below and tell me clearance for each one, in order.
1. CN=[S+](C)([O-])c1ccc(Nc2ncc(C(F)(F)F)c(N[C@@H]3CCC[C@H]3N(C)C)n2)cc1 (stereo in doubt; (S)-14a)
2. CN(C)[C@@H]1CCC[C@H]1Nc1nc(Nc2ccc(S(C)(=O)=O)cc2)ncc1C(F)(F)F

Out:
74
42
